Target: Cyclin-dependent kinase 5/CDK5 activator 1 (Homo sapiens)
Sequence (Q00535 whole entry): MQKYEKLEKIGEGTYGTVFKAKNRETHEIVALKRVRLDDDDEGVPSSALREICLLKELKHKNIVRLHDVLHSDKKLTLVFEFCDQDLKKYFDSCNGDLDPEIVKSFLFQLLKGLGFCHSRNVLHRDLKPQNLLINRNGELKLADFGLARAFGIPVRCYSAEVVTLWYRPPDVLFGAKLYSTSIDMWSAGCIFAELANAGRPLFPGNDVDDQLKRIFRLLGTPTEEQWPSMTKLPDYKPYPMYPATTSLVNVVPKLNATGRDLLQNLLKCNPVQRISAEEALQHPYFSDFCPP
Sequence (Q15078 whole entry, further chain): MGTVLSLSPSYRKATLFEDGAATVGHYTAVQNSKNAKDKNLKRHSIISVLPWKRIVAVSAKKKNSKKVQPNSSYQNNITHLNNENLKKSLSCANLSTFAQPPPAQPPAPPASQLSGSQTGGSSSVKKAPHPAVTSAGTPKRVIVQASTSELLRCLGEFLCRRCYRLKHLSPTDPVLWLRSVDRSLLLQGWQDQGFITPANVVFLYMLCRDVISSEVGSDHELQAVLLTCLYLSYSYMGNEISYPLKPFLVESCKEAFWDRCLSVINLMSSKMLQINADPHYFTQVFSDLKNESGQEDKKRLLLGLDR
Method: Inhibitory activity against Cyclin-dependent kinase 5-p35nck5a
Quantity Kind: IC50

# Smiles Notation, IC50
rows = [
    ("Cn1c(O)c(C2=Nc3ccccc3C2=O)c2ccc(Br)cc21", "> 100 µM"),
    ("O=C1C(c2c(O)[nH]c3ccccc23)=Nc2cc(Br)ccc21", "> 100 µM"),
]

Next molecule, IC50 to be filled in.
Query: Field request: IC50 | item: Cn1c(O)c(-c2[nH]c3ccccc3c2N=O)c2ccccc21
Reply: > 100 µM

---

Reported IC50 values follow for various molecules
Target: Cyclin-dependent kinase 1/cyclin B (Marthasterias glacialis)
Method: Inhibitory activity against cyclin dependent kinase 1-cyclinB from starfish (Marthasterias glacialis) oocytes

These solved cases illustrate the format of a correct answer.
# Smiles Notation, Target, IC50
records = [
    ("Cc1cc2c(C3=Nc4ccccc4C3=O)c(O)[nH]c2cc1Br", "Cyclin-dependent kinase 1/cyclin B (Marthasterias glacialis)", "30 µM"),
    ("CC(=O)O/N=C1/C(=C2/C(=O)Nc3cc(Br)c(C)cc32)Nc2ccccc21", "Cyclin-dependent kinase 1/cyclin B (Marthasterias glacialis)", "31 µM"),
    ("CC(=O)O/N=C1/C(c2c(O)[nH]c3cc(I)ccc23)=Nc2ccccc21", "Cyclin-dependent kinase 1/cyclin B (Marthasterias glacialis)", "2.2 µM"),
    ("O=C1C(c2c(O)[nH]c3cc(I)ccc23)=Nc2ccccc21", "Cyclin-dependent kinase 1/cyclin B (Marthasterias glacialis)", "1.6 µM"),
    ("C=Cc1ccc2c(C3=Nc4ccccc4/C3=N\\OC(C)=O)c(O)[nH]c2c1", "Cyclin-dependent kinase 1/cyclin B (Marthasterias glacialis)", "1.6 µM"),
    ("CC(=O)O/N=C1/C(=C2/C(=O)Nc3cc(Br)c([N+](=O)[O-])cc32)Nc2ccccc21", "Cyclin-dependent kinase 1/cyclin B (Marthasterias glacialis)", "11 µM"),
    ("O=C1C(c2c(O)[nH]c3cc(Cl)c(Cl)cc23)=Nc2ccccc21", "Cyclin-dependent kinase 1/cyclin B (Marthasterias glacialis)", "45 µM"),
    ("O=C1C(c2c(O)[nH]c3cccc(Cl)c23)=Nc2ccccc21", "Cyclin-dependent kinase 1/cyclin B (Marthasterias glacialis)", "10 µM"),
    ("O=Nc1c(-c2c(O)[nH]c3cc(Br)ccc23)[nH]c2cc(Br)ccc12", "Cyclin-dependent kinase 1/cyclin B (Marthasterias glacialis)", "17 µM"),
]

Could you now look at the following molecule, please?
Query: Can you share its IC50? I mean this molecule: Cn1c(O)c(C2=Nc3ccccc3C2=O)c2ccccc21
Reply: > 100 µM

Data provenance: ChEMBL document CHEMBL1148469
